Where these numbers come from: patent US9976134B2

Measured PI (relative stability), 25% TIDE 2X without DTPA, listed per entry for reference.
# assay overview: Stability assay in 25% TIDE 2X detergent without DTPA (residual Abz-AGLA-Nba protease activity)
# Type: physicochemical
# settings: 180 min at 50°C; variant residual AGLA activity divided by wild-type residual activity

S065V: single-substitution thermolysin variant (SEQ ID NO:3 numbering) (protein, listed as Geobacillus caldoproteolyticus) ITGTSTVGVGRGVLGDQKNINTTYSTYYYLQDNTRGNGIFTYDAKYRTTLPGSLWADADNQFFAVYDAPAVDAHYYAGVTYDYYKNVHNRLSYDGNNAAIRSSVHYSQGYNNAFWNGSQMVYGDGDGQTFIPLSGGIDVVAHELTHAVTDYTAGLIYQNESGAINEAISDIFGTLVEFYANKNPDWEIGEDVYTPGISGDSLRSMSDPAKYGDPDHYSKRYTGTQDNGGVHINSGIINKAAYLISQGGTHYGVSVVGIGRDKLGKIFYRALTQYLTPTSNFSQLRAAAVQSATDLYGSTSQEVASVKQAFDAVGVK
1.08

Here is the next item to consider.
// query PI (relative stability), 25% TIDE 2X without DTPA value for entry Y151A: single-substitution thermolysin variant (SEQ ID NO:3 numbering) (protein, listed as Geobacillus caldoproteolyticus) ITGTSTVGVGRGVLGDQKNINTTYSTYYYLQDNTRGNGIFTYDAKYRTTLPGSLWADADNQFFASYDAPAVDAHYYAGVTYDYYKNVHNRLSYDGNNAAIRSSVHYSQGYNNAFWNGSQMVYGDGDGQTFIPLSGGIDVVAHELTHAVTDATAGLIYQNESGAINEAISDIFGTLVEFYANKNPDWEIGEDVYTPGISGDSLRSMSDPAKYGDPDHYSKRYTGTQDNGGVHINSGIINKAAYLISQGGTHYGVSVVGIGRDKLGKIFYRALTQYLTPTSNFSQLRAAAVQSATDLYGSTSQEVASVKQAFDAVGVK
1.24
